Experiment: chemical genetic growth profiling, strain panel (AID 1159580);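 note: tested at 20 µM; growth read once vehicle control cultures reached saturation at 30 °C; 1 = growth at the plate median or of vehicle wells; lower values mean less growth of the strain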
Settings: S. cerevisiae deletion strains, growth OD, locus YKR026C, strain gcn3, active compounds read low
The whole screen tested about 5,500 compounds, of which about 2,000 (36%) were called active. Another 18% or so got no clear call; they are omitted. The list shows a part of the results.
metric: normalized growth
Output: the number by itself.

Known normalized growth results, listed for orientation:
INSERT INTO assay_data (compound, metric, experimentalresult) VALUES
  ('CC(C)(C)NCC(O)COc1cccc2c1CCCC2=O (stereo not drawn)', 'normalized growth', 0.983),
  ('CO[C@@H]1[C@@H](OC(N)=O)[C@@H](O)[C@H](Oc2ccc3c(O)c(NC(=O)c4ccc(O)c(CC=C(C)C)c4)c(=O)oc3c2C)OC1(C)C', 'normalized growth', 1.04);

For reference, reported normalized growth for COC(=O)[C@H]1[C@H]2C[C@H]3c4[nH]c5cc(OC)ccc5c4CCN3C[C@H]2C[C@@H](OC(=O)c2cc(OC)c(OC)c(OC)c2)[C@@H]1OC stands at 0.994

get_value(item= NC[C@H]1O[C@H](O[C@H]2[C@H](O)[C@@H](O[C@H]3O[C@H](CO)[C@@H](O)[C@H](N)[C@H]3O)[C@H](N)C[C@@H]2N)[C@H](N)[C@@H](O)[C@@H]1O , readout=normalized growth) returns 0.984
